# CONDITION SUMMARY: in n-propanol, 308.2 K
PROPERTY LABEL: solubility (mole fraction)
Give bare numbers.

Quick check: solubility (mole fraction) of O=c1cc(-c2ccccc2)oc2c1ccc1ccccc12 ?
0.00364

----------
# CONDITION SUMMARY: in n-butanol, 313.15 K
PROPERTY LABEL: solubility (mole fraction)
Answers are plain numbers.

Record request: solubility (mole fraction) value, item O=c1cc(-c2ccccc2)oc2c1ccc1ccccc12
0.00575

----------
# CONDITION SUMMARY: in isobutanol, 283.15 K
PROPERTY LABEL: solubility (mole fraction)
Give bare numbers.

Requested field: solubility (mole fraction). Item: O=c1cc(-c2ccccc2)oc2c1ccc1ccccc12
0.00153

----------
# CONDITION SUMMARY: in toluene, 283.15 K
PROPERTY LABEL: solubility (mole fraction)
Answers are plain numbers.

Suppose we examine the molecule O=c1cc(-c2ccccc2)oc2c1ccc1ccccc12 ; what solubility (mole fraction) value has been reported?
0.00623

----------
# CONDITION SUMMARY: in ethyl acetate, 298.15 K
PROPERTY LABEL: solubility (mole fraction)
Give bare numbers.

So what's the measured solubility (mole fraction) for this one? O=c1cc(-c2ccccc2)oc2c1ccc1ccccc12
0.00614

----------
# CONDITION SUMMARY: in ethanol, 278.2 K
PROPERTY LABEL: solubility (mole fraction)
Answers are plain numbers.

Name the reported solubility (mole fraction) value associated with the molecule O=c1cc(-c2ccccc2)oc2c1ccc1ccccc12
0.000475

----------
# CONDITION SUMMARY: in acetone, 283.15 K
PROPERTY LABEL: solubility (mole fraction)
Give bare numbers.

Fill in: solubility (mole fraction) of O=c1cc(-c2ccccc2)oc2c1ccc1ccccc12 is ___
0.00326

----------
# CONDITION SUMMARY: in acetone, 313.15 K
PROPERTY LABEL: solubility (mole fraction)
Answers are plain numbers.

Reported solubility (mole fraction) for O=c1cc(-c2ccccc2)oc2c1ccc1ccccc12 : what is it?
0.00846

----------
# CONDITION SUMMARY: in acetonitrile, 318.15 K
PROPERTY LABEL: solubility (mole fraction)

Quick one: solubility (mole fraction) of O=c1cc(-c2ccccc2)oc2c1ccc1ccccc12 ?
0.0034

----------
# CONDITION SUMMARY: in 1,4-dioxane, 318.15 K
PROPERTY LABEL: solubility (mole fraction)

// lookup solubility (mole fraction) for O=c1cc(-c2ccccc2)oc2c1ccc1ccccc12
0.0363

----------
# CONDITION SUMMARY: in isopropanol, 278.2 K
PROPERTY LABEL: solubility (mole fraction)

Query: solubility (mole fraction); subject: O=c1cc(-c2ccccc2)oc2c1ccc1ccccc12
0.000676

----------
# CONDITION SUMMARY: in cyclohexane, 283.15 K
PROPERTY LABEL: solubility (mole fraction)
Give bare numbers.

Which solubility (mole fraction) reading was recorded for the compound O=c1cc(-c2ccccc2)oc2c1ccc1ccccc12 ?
0.000138

----------
# CONDITION SUMMARY: in cyclohexane, 303.15 K
PROPERTY LABEL: solubility (mole fraction)
Give bare numbers.

Which solubility (mole fraction) value belongs to O=c1cc(-c2ccccc2)oc2c1ccc1ccccc12 ?
0.000391

----------
# CONDITION SUMMARY: in isopropanol, 308.2 K
PROPERTY LABEL: solubility (mole fraction)
Answers are plain numbers.

Give its solubility (mole fraction) value. Item: O=c1cc(-c2ccccc2)oc2c1ccc1ccccc12
0.0022

----------
# CONDITION SUMMARY: in acetone, 288.15 K
PROPERTY LABEL: solubility (mole fraction)
Give bare numbers.

What does the data say about its solubility (mole fraction)? Entry: O=c1cc(-c2ccccc2)oc2c1ccc1ccccc12
0.00392

----------
# CONDITION SUMMARY: in n-butanol, 298.15 K
PROPERTY LABEL: solubility (mole fraction)
Numbers only.

Return reported solubility (mole fraction); argument: O=c1cc(-c2ccccc2)oc2c1ccc1ccccc12
0.00346

----------
# CONDITION SUMMARY: in isobutanol, 278.15 K
PROPERTY LABEL: solubility (mole fraction)
One number for each entry.

Request the reported solubility (mole fraction) associated with O=c1cc(-c2ccccc2)oc2c1ccc1ccccc12
0.00118

----------
# CONDITION SUMMARY: in ethanol, 293.2 K
PROPERTY LABEL: solubility (mole fraction)
Numbers only.

What does the record list as solubility (mole fraction) for O=c1cc(-c2ccccc2)oc2c1ccc1ccccc12 ?
0.00113

----------
# CONDITION SUMMARY: in n-propanol, 283.2 K
PROPERTY LABEL: solubility (mole fraction)
One number for each entry.

Name the reported solubility (mole fraction) value associated with the molecule O=c1cc(-c2ccccc2)oc2c1ccc1ccccc12
0.0014

----------
# CONDITION SUMMARY: in acetone, 278.15 K
PROPERTY LABEL: solubility (mole fraction)
Numbers only.

Looking for the measured solubility (mole fraction) of O=c1cc(-c2ccccc2)oc2c1ccc1ccccc12 , can you help?
0.00273

----------
# CONDITION SUMMARY: in isobutanol, 293.15 K
PROPERTY LABEL: solubility (mole fraction)
Give bare numbers.

Find the recorded solubility (mole fraction) belonging to O=c1cc(-c2ccccc2)oc2c1ccc1ccccc12 and report it.
0.00231

----------
# CONDITION SUMMARY: in toluene, 308.15 K
PROPERTY LABEL: solubility (mole fraction)
One number for each entry.

Find the recorded solubility (mole fraction) belonging to O=c1cc(-c2ccccc2)oc2c1ccc1ccccc12 and report it.
0.0136

----------
# CONDITION SUMMARY: in ethyl acetate, 308.15 K
PROPERTY LABEL: solubility (mole fraction)
Answers are plain numbers.

Request the reported solubility (mole fraction) associated with O=c1cc(-c2ccccc2)oc2c1ccc1ccccc12
0.00824

----------
# CONDITION SUMMARY: in isopropanol, 293.2 K
PROPERTY LABEL: solubility (mole fraction)
Answers are plain numbers.

Any idea what its solubility (mole fraction) is? The molecule is O=c1cc(-c2ccccc2)oc2c1ccc1ccccc12
0.00127

----------
# CONDITION SUMMARY: in methanol, 298.2 K
PROPERTY LABEL: solubility (mole fraction)
Numbers only.

Could you tell me which solubility (mole fraction) is on file for O=c1cc(-c2ccccc2)oc2c1ccc1ccccc12 ?
0.00203

----------
# CONDITION SUMMARY: in acetonitrile, 273.15 K
PROPERTY LABEL: solubility (mole fraction)
Numbers only.

Which solubility (mole fraction) value is on record for O=c1cc(-c2ccccc2)oc2c1ccc1ccccc12 ?
0.000628

----------
# CONDITION SUMMARY: in ethanol, 283.2 K
PROPERTY LABEL: solubility (mole fraction)

Sample O=c1cc(-c2ccccc2)oc2c1ccc1ccccc12 — what was its solubility (mole fraction)?
0.000677

----------
# CONDITION SUMMARY: in acetonitrile, 308.15 K
PROPERTY LABEL: solubility (mole fraction)
Numbers only.

Using the record for O=c1cc(-c2ccccc2)oc2c1ccc1ccccc12 , report its solubility (mole fraction).
0.00242

----------
# CONDITION SUMMARY: in isopropanol, 298.2 K
PROPERTY LABEL: solubility (mole fraction)
Numbers only.

Suppose we examine the compound O=c1cc(-c2ccccc2)oc2c1ccc1ccccc12 ; what solubility (mole fraction) value has been reported?
0.00153

----------
# CONDITION SUMMARY: in n-butanol, 303.15 K
PROPERTY LABEL: solubility (mole fraction)

Consider the compound O=c1cc(-c2ccccc2)oc2c1ccc1ccccc12 and give its measured solubility (mole fraction).
0.00412

----------
# CONDITION SUMMARY: in isopropanol, 313.2 K
PROPERTY LABEL: solubility (mole fraction)
Answers are plain numbers.

What value of solubility (mole fraction) has been recorded for this entry: O=c1cc(-c2ccccc2)oc2c1ccc1ccccc12
0.00265

----------
# CONDITION SUMMARY: in ethyl acetate, 313.15 K
PROPERTY LABEL: solubility (mole fraction)
One number for each entry.

Look up solubility (mole fraction) for this compound: O=c1cc(-c2ccccc2)oc2c1ccc1ccccc12
0.00948

----------
# CONDITION SUMMARY: in ethanol, 298.2 K
PROPERTY LABEL: solubility (mole fraction)
Numbers only.

I have this molecule here, O=c1cc(-c2ccccc2)oc2c1ccc1ccccc12 , and I need its recorded solubility (mole fraction).
0.00136

----------
# CONDITION SUMMARY: in ethanol, 318.2 K
PROPERTY LABEL: solubility (mole fraction)
Answers are plain numbers.

Sample O=c1cc(-c2ccccc2)oc2c1ccc1ccccc12 — what was its solubility (mole fraction)?
0.00277

----------
# CONDITION SUMMARY: in ethyl acetate, 273.15 K
PROPERTY LABEL: solubility (mole fraction)

Consider the compound O=c1cc(-c2ccccc2)oc2c1ccc1ccccc12 and give its measured solubility (mole fraction).
0.00271

----------
# CONDITION SUMMARY: in acetonitrile, 293.15 K
PROPERTY LABEL: solubility (mole fraction)
One number for each entry.

Given O=c1cc(-c2ccccc2)oc2c1ccc1ccccc12 , state its recorded solubility (mole fraction).
0.0015
